- Target under test: Duox1 (Homo sapiens, UniProt Q9NRD9)
- Sequence (Q9NRD9 22-1551): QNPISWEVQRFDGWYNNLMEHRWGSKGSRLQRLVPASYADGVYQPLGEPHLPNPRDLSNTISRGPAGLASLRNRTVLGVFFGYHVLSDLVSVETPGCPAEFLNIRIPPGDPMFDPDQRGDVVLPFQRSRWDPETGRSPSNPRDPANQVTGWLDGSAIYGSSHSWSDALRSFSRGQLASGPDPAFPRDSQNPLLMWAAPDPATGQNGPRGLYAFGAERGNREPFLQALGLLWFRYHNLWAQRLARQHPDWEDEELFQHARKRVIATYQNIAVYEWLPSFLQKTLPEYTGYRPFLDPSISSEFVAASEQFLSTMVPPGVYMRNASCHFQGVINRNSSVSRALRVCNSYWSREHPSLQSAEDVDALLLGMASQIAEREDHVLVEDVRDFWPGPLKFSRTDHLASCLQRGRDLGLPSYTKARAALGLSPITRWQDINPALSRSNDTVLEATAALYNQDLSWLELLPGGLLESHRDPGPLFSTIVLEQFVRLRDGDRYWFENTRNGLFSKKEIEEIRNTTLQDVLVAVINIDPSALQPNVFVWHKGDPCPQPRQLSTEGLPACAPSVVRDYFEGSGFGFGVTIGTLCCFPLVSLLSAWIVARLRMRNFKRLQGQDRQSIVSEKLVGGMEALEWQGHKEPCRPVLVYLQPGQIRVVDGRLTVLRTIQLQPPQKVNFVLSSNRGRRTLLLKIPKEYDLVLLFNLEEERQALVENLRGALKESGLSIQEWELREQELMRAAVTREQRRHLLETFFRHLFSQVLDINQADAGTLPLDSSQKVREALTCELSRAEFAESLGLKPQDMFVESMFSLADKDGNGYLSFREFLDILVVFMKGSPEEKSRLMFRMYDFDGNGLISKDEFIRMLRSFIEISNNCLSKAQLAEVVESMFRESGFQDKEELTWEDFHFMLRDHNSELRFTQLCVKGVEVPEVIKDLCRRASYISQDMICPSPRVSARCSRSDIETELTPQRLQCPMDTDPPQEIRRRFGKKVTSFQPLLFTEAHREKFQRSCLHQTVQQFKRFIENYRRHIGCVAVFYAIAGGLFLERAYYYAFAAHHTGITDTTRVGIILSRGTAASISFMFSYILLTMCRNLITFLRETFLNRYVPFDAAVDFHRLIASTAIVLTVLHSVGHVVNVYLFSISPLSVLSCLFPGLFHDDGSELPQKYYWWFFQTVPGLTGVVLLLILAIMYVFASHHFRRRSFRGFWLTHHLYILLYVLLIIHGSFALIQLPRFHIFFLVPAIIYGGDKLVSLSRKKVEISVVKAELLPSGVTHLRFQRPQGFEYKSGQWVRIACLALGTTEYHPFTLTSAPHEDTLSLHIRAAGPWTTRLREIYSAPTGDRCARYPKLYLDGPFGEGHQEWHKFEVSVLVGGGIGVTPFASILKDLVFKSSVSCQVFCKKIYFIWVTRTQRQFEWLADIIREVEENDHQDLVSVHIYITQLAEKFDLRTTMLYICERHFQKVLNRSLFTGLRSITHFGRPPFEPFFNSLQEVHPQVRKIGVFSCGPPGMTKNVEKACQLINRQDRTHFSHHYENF
- Sequence (Q1HG43 whole entry partner): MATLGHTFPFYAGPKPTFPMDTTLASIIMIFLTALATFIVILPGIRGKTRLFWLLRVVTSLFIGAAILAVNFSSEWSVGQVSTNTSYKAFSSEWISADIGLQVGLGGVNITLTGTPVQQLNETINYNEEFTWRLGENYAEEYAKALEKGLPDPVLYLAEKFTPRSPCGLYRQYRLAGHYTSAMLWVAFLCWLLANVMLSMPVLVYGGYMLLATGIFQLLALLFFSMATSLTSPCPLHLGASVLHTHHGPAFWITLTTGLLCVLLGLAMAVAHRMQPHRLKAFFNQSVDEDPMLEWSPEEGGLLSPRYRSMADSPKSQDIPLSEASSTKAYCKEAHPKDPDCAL
- Assay remarks: H2O2 synthesis assay in homogenates of HEK293T cells expressing Duox1/DuoxA1α
- Type: biochemical
Property name: IC50 (µM)
Write the value in µM as a bare number.

Q: API: value(readout=IC50, system=Duox1 (Homo sapiens, UniProt Q9NRD9)) for record "N=C(N)Nc1nc2ccc(Cl)cc2[nH]1"
Ans: 140
